tested on: Escherichia coli TOP10; assay: shrunken log2 fold change of peptide-encoding DNA abundance (4.5 h post-induction vs induction); higher = less antimicrobial activity (less host growth inhibition); details: time post-induction: 4.5 h; library: site-saturation at positions 5, 18, 19, 20
property-label: shrunken log2 fold change

input-sequence	shrunken log2 fold change
RRIRCRPPRLPRPRPRPFKQPRP	-0.0402

Give shrunken log2 fold change for each listed item.
1. RRIRFRPPRLPRPRPRPPDGPRP
2. RRIRYRPPRLPRPRPRPEVMPRP
3. RRIRERPPRLPRPRPRPTGFPRP
4. RRIRCRPPRLPRPRPRPHWSPRP
5. RRIRIRPPRLPRPRPRPAGGPRP
6. RRIRGRPPRLPRPRPRPWIPPRP

Reply |
1: 0.209; 2: 0.00902; 3: -0.00436; 4: -0.395; 5: 0.3; 6: -0.429

I'm hoping you can list shrunken log2 fold change for every sequence here, please.
1. RRIRGRPPRLPRPRPRPIAHPRP
2. RRIRYRPPRLPRPRPRPTRTPRP
3. RRIRPRPPRLPRPRPRPGQPPRP
4. RRIRTRPPRLPRPRPRPKSWPRP
5. RRIRERPPRLPRPRPRPKVKPRP

Reply |
[0.334, -0.0719, -0.0656, 0.245, 0.0263]

Return reported shrunken log2 fold change values for all items listed beneath this line.
1. RRIRKRPPRLPRPRPRPAEPPRP
2. RRIRPRPPRLPRPRPRPRPCPRP
3. RRIRDRPPRLPRPRPRPHFMPRP
4. RRIRQRPPRLPRPRPRPFNSPRP
5. RRIRNRPPRLPRPRPRPYLFPRP
6. RRIRVRPPRLPRPRPRPTYHPRP
7. RRIRIRPPRLPRPRPRPCDVPRP
8. RRIRERPPRLPRPRPRPFMHPRP

Reply |
1. 0.429
2. 0.188
3. -0.47
4. -0.3
5. -0.541
6. 1.5
7. -0.124
8. -0.121

Look up shrunken log2 fold change for the entries below, preserving their order.
1. RRIRLRPPRLPRPRPRPLFVPRP
2. RRIRMRPPRLPRPRPRPAYRPRP
3. RRIRRRPPRLPRPRPRPYWAPRP
4. RRIRCRPPRLPRPRPRPRPQPRP
5. RRIRGRPPRLPRPRPRPKVWPRP
6. RRIRRRPPRLPRPRPRPKRLPRP
7. RRIRARPPRLPRPRPRPGHHPRP

Reply |
1. -0.329
2. 0.196
3. -0.199
4. 0.776
5. 0.665
6. 0.191
7. 0.127

# map each sequence to its shrunken log2 fold change
1. RRIRERPPRLPRPRPRPAEEPRP
2. RRIRARPPRLPRPRPRPLLRPRP

Reply |
[-0.175, 0.103]

====

tested on: Escherichia coli TOP10; assay: shrunken log2 fold change of peptide-encoding DNA abundance (4.5 h post-induction vs induction); higher = less antimicrobial activity (less host growth inhibition); conditions: time post-induction: 4.5 h; library: site-saturation at positions 5, 18, 19, 20;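 further: peptides expressed intracellularly from a pBAD plasmid library in pooled LB shake-flask culture, induced with 0.3% L-arabinose, DNA abundance read by NGS, three biological replicates, DESeq2 with apeglm shrinkage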
Please respond with reported shrunken log2 fold change for every item in the list.
Numbers only.

Example entries begin here.
input-sequence	measured
RRIRCRPPRLPRPRPRPKVIPRP	-0.297
RRIRFRPPRLPRPRPRPYYLPRP	-0.392
RRIRKRPPRLPRPRPRPNIMPRP	-0.189

Quick one: give me shrunken log2 fold change for each item below, same order please.
1. RRIRLRPPRLPRPRPRPFIQPRP
2. RRIRPRPPRLPRPRPRPMPKPRP
3. RRIRGRPPRLPRPRPRPYCAPRP
4. RRIRTRPPRLPRPRPRPLGQPRP
5. RRIRPRPPRLPRPRPRPEEHPRP

Reply |
1. -0.418
2. 0.409
3. -0.119
4. -0.137
5. -0.0242
